tested on: Nilaparvata lugens (Brown Plant Hopper); assay: Nilaparvata lugens (Brown Plant Hopper) rice seedling spray test, mortality; type: in vivo; settings: rate 12.5 ppm; N3 nymphs; mortality 6-12 days after treatment
readout-name: Control/% (%)

> print(dat)
                                    molecule                             assay.system  quantitative.readout
 1  Cc1cc(C2=NO[C@@](c3cc(Cl)cc(Cl)c3)(C(F)(F)F)C2)ccc1C(=O)N[C@@H]1CON(CC(F)(F)F)C1=O  Nilaparvata lugens (Brown Plant Hopper)                    98
 2  Cc1cc(C2=NOC(c3cc(Cl)cc(Cl)c3)(C(F)(F)F)C2)ccc1C(=O)NC1CON(C)C1=O (mixture of isomers) [Compound A1]  Nilaparvata lugens (Brown Plant Hopper)                    93
 3  Cc1cc(C2=NOC(c3cc(Cl)c(Cl)c(Cl)c3)(C(F)(F)F)C2)ccc1C(=O)NC1CON(CC(F)(F)F)C1=O (mixture of isomers)  Nilaparvata lugens (Brown Plant Hopper)                    90
 4  CCN1OC[C@@H](NC(=O)c2ccc(C3=NO[C@@](c4cc(Cl)cc(C(F)(F)F)c4)(C(F)(F)F)C3)cc2C)C1=O  Nilaparvata lugens (Brown Plant Hopper)                    99
 5  Cc1cc(C2=NOC(c3cc(Cl)cc(Cl)c3)(C(F)(F)F)C2)ccc1C(=O)NC1CON(C)C1=O (mixture of isomers) [Compound A22]  Nilaparvata lugens (Brown Plant Hopper)                    98
 6  CCN1OCC(NC(=O)c2ccc(C3=NCC(c4cc(Cl)cc(Cl)c4)(C(F)(F)F)C3)cc2C)C1=O (mixture of isomers) [Compound B1]  Nilaparvata lugens (Brown Plant Hopper)                     0
 7  Cc1cc(C2=NCC(c3cc(Cl)cc(Cl)c3)(C(F)(F)F)C2)ccc1C(=O)NC1CON(CC(F)(F)F)C1=O (stereo not shown)  Nilaparvata lugens (Brown Plant Hopper)                   100
 8  CCN1OC[C@@H](NC(=O)c2ccc(C3=NO[C@@](c4cc(Cl)c(Cl)c(Cl)c4)(C(F)(F)F)C3)cc2C)C1=O  Nilaparvata lugens (Brown Plant Hopper)                    93
 9  CCN1OCC(NC(=O)c2ccc(C3=NOC(c4cc(Cl)c(Br)c(Cl)c4)(C(F)(F)F)C3)cc2C)C1=O (mixture of isomers)  Nilaparvata lugens (Brown Plant Hopper)                   100
10  Cc1cc(C2=NO[C@@](c3cc(Cl)cc(Cl)c3)(C(F)(F)F)C2)ccc1C(=O)N[C@@H]1CON(CC(F)F)C1=O  Nilaparvata lugens (Brown Plant Hopper)                   100
11  CCN1OC[C@@H](NC(=O)c2ccc(C3=NO[C@@](c4cc(Cl)cc(Cl)c4)(C(F)(F)F)C3)cc2C)C1=O  Nilaparvata lugens (Brown Plant Hopper)                   100
12  CCN1OC[C@@H](NC(=O)c2ccc(C3=NO[C@@](c4cc(Cl)c(F)c(Cl)c4)(C(F)(F)F)C3)cc2C)C1=O  Nilaparvata lugens (Brown Plant Hopper)                    75
13  CCN1OC[C@@H](NC(=O)c2ccc(C3=NO[C@@](c4cc(Cl)cc(Cl)c4)(C(F)(F)F)C3)cc2C(F)(F)F)C1=O  Nilaparvata lugens (Brown Plant Hopper)                     0

---

tested on: Nilaparvata lugens (Brown Plant Hopper); assay: Nilaparvata lugens (Brown Plant Hopper) rice seedling spray test, mortality; format: in vivo; details: rate 25 ppm; N3 nymphs; mortality 6-12 days after treatment
Each item that follows carries a reported Control/%.
readout-name: Control/% (%)

> print(dat)
                                   compound  quantitative.readout
1  CCN1OCC(NC(=O)c2ccc(C3=NOC(c4cc(Cl)cc(Cl)c4)(C(F)(F)F)C3)cc2C)C1=O (mixture of isomers) [Compound A18]                   100
2  CCN1OC[C@@H](NC(=O)c2ccc(C3=NO[C@@](c4cccc(C(F)(F)F)c4)(C(F)(F)F)C3)cc2C)C1=O [Compound A30]                   100
3  CCN1OC[C@@H](NC(=O)c2ccc(C3=NO[C@@](c4cc(Cl)c(F)c(Cl)c4)(C(F)(F)F)C3)cc2Cl)C1=O [Compound A25]                   100
4  CCN1OC[C@@H](NC(=O)c2ccc(C3=NO[C@@](c4cc(Cl)c(F)c(Cl)c4)(C(F)(F)F)C3)cc2C)C1=O [Compound A24]                    85

---

test system: Nilaparvata lugens (Brown Plant Hopper); assay: Nilaparvata lugens (Brown Plant Hopper) rice seedling spray test, mortality; type: in vivo; conditions: rate 12.5 ppm; N3 nymphs; mortality 6-12 days after treatment
readout-name: Control/% (%)

> print(dat)
                                   molecule  readout.name  quantitative.readout
1  Cc1cc(C2=NO[C@@](c3cc(Cl)c(Cl)c(Cl)c3)(C(F)(F)F)C2)ccc1C(=O)N[C@@H]1CON(CC(F)(F)F)C1=O     Control/%                    75
2  CCN1OCC(NC(=O)c2ccc(C3=NOC(c4cc(Cl)cc(Cl)c4)(C(F)(F)F)C3)cc2C)C1=O (mixture of isomers) [Compound A18]     Control/%                   100
3  Cc1cc(C2=NOC(c3cc(Cl)cc(Cl)c3)(C(F)(F)F)C2)ccc1C(=O)NC1CON(CC(F)(F)F)C1=O (mixture of isomers) [Compound A2]     Control/%                    80
4  Cc1cc(C2=NO[C@@](c3cc(Cl)cc(Br)c3)(C(F)(F)F)C2)ccc1C(=O)N[C@@H]1CON(CC(F)(F)F)C1=O     Control/%                   100
5  Cc1cc(C2=NO[C@@](c3cc(Cl)c(F)c(Cl)c3)(C(F)(F)F)C2)ccc1C(=O)N[C@@H]1CON(CC(F)(F)F)C1=O     Control/%                   100
6  CCN1OC[C@@H](NC(=O)c2ccc(C3=NO[C@@](c4cc(Cl)cc(Cl)c4)(C(F)(F)F)C3)cc2Br)C1=O     Control/%                    98
7  CCN1OCC(NC(=O)c2ccc(C3=NOC(c4cc(F)cc(Cl)c4)(C(F)(F)F)C3)cc2C)C1=O (mixture of isomers)     Control/%                    80

---

system: Nilaparvata lugens (Brown Plant Hopper); assay: Nilaparvata lugens (Brown Plant Hopper) rice seedling spray test, mortality; type: in vivo; details: rate 12.5 ppm; N3 nymphs; mortality 6-12 days after treatment
Measured Control/% values are reported for all entries that follow.
readout-name: Control/% (%)

> print(dat)
                                   compound  readout.name  unit.name  quantitative.readout
1  CCN1OCC(NC(=O)c2ccc(C3=NOC(c4cc(C(F)(F)F)c(Cl)c(C(F)(F)F)c4)(C(F)(F)F)C3)cc2C)C1=O (mixture of isomers)     Control/%          %                   100
2  Cc1cc(C2=NOC(c3cc(Cl)cc(Cl)c3)(C(F)(F)F)C2)ccc1C(=O)NC1CON(CC(F)(F)F)C1=O (mixture of isomers) [Compound A19]     Control/%          %                   100
3  Cc1cc(C2=NOC(c3cc(Cl)cc(Cl)c3)(C(F)(F)F)C2)ccc1C(=O)NC1CON(CC(F)F)C1=O (mixture of isomers)     Control/%          %                   100
4  CCN1OCC(NC(=O)c2ccc(C3=COC(c4cc(Cl)cc(Cl)c4)(C(F)(F)F)C3)cc2C)C1=O (mixture of isomers)     Control/%          %                     0
5  CCN1OC[C@@H](NC(=O)c2ccc(C3=NO[C@@](c4cc(Cl)c(Cl)c(Cl)c4)(C(F)(F)F)C3)cc2Br)C1=O     Control/%          %                    80
6  CCN1OCC(NC(=O)c2ccc(C3=NOC(c4cc(Cl)c(Cl)c(Cl)c4)(C(F)(F)F)C3)cc2C)C1=O (mixture of isomers)     Control/%          %                   100

---

Test system: Nilaparvata lugens (Brown Plant Hopper)
Test: Nilaparvata lugens (Brown Plant Hopper) rice seedling spray test, mortality
Format: in vivo
Conditions: rate 25 ppm; N3 nymphs; mortality 6-12 days after treatment
Description: Nilaparvata lugens (Brown Plant Hopper) Rice seedlings are treated with the diluted test solutions in a spray chamber. After drying, plants are infested with 20 N3 nymphs (2 replicates). 6-12 days after the treatment samples are checked for mortality
readout-name: Control/% (%)

> print(dat)
                                    compound                             assay.system  unit.name  quantitative.readout
 1  Cc1cc(C2=NOC(c3cc(Cl)cc(Cl)c3)(C(F)(F)F)C2)ccc1C(=O)NC1CON(C)C1=O (mixture of isomers) [Compound A1]  Nilaparvata lugens (Brown Plant Hopper)          %                    93
 2  CCN1OCC(NC(=O)c2ccc(C3=NOC(c4cc(Cl)c(Br)c(Cl)c4)(C(F)(F)F)C3)cc2C)C1=O (mixture of isomers) [Compound A7]  Nilaparvata lugens (Brown Plant Hopper)          %                   100
 3  Cc1cc(C2=NOC(c3cc(Cl)cc(Cl)c3)(C(F)(F)F)C2)ccc1C(=O)NC1CON(C)C1=O (mixture of isomers) [Compound A5]  Nilaparvata lugens (Brown Plant Hopper)          %                    65
 4  CCN1OCC(NC(=O)c2ccc(C3=NOC(c4cc(F)cc(Cl)c4)(C(F)(F)F)C3)cc2C)C1=O (mixture of isomers) [Compound A11]  Nilaparvata lugens (Brown Plant Hopper)          %                    55
 5  Cc1cc(C2=NOC(c3cc(Cl)cc(Cl)c3)(C(F)(F)F)C2)ccc1C(=O)NC1CON(CC(F)F)C1=O (mixture of isomers) [Compound A20]  Nilaparvata lugens (Brown Plant Hopper)          %                   100
 6  CCN1OCC(NC(=O)c2ccc(C3=COC(c4cc(Cl)cc(Cl)c4)(C(F)(F)F)C3)cc2C)C1=O (mixture of isomers) [Compound C1]  Nilaparvata lugens (Brown Plant Hopper)          %                    15
 7  Cc1cc(C2=NOC(c3cc(Cl)cc(Cl)c3)(C(F)(F)F)C2)ccc1C(=O)NC1CON(CC(F)(F)F)C1=O (mixture of isomers) [Compound A19]  Nilaparvata lugens (Brown Plant Hopper)          %                   100
 8  Cc1cc(C2=NOC(c3cc(Cl)cc(Cl)c3)(C(F)(F)F)C2)ccc1C(=O)NC1CON(C)C1=O (mixture of isomers) [Compound A22]  Nilaparvata lugens (Brown Plant Hopper)          %                   100
 9  CCN1OC[C@@H](NC(=O)c2ccc(C3=NO[C@@](c4cc(Cl)cc(Cl)c4)(C(F)(F)F)C3)cc2C(F)(F)F)C1=O [Compound A28]  Nilaparvata lugens (Brown Plant Hopper)          %                    50
10  Cc1cc(C2=NCC(c3cc(Cl)cc(Cl)c3)(C(F)(F)F)C2)ccc1C(=O)NC1CON(CC(F)(F)F)C1=O (stereo not drawn) [Compound B3]  Nilaparvata lugens (Brown Plant Hopper)          %                   100
11  Cc1cc(C2=NO[C@@](c3cc(Cl)c(Cl)c(Cl)c3)(C(F)(F)F)C2)ccc1C(=O)N[C@@H]1CON(CC(F)(F)F)C1=O [Compound A13]  Nilaparvata lugens (Brown Plant Hopper)          %                   100
12  Cc1cc(C2=NO[C@@](c3cc(Cl)cc(Br)c3)(C(F)(F)F)C2)ccc1C(=O)N[C@@H]1CON(CC(F)(F)F)C1=O [Compound A17]  Nilaparvata lugens (Brown Plant Hopper)          %                   100

// provenance: patent US9474279B2
